System: BDF1 mice, B16 melanoma ip, median survival T/C
Procedure details: NCI In Vivo Anticancer Drug Screen. Data for tumor model B16 Melanoma (intraperitoneal) in B6D2F1 (BDF1) mice
Assay setup: endpoint: median survival time; dose: 25.0 mg/kg/injection; schedule: Q01DX009 (ip); vehicle: Klucel (hydroxypropylcellulose) (HPC); higher = longer survival
Inconclusive results and toxic doses are left out.
Assay readout: T/C

INSERT INTO assay_data (compound, assay_readout, recorded_result) VALUES
  ('COc1ccc(CCN2CC(=O)NC(=O)C2)cc1OC', 'T/C', '97 % of control'),
  ('CC1=CCC(C(C)C)C=C1 (configuration not stated)', 'T/C', '92 % of control'),
  ('CC(=O)CC(=O)Nc1cccc([N+](=O)[O-])c1', 'T/C', '100 % of control'),
  ('CNC(=O)Nc1cccc(C(F)(F)F)c1', 'T/C', '99 % of control'),
  ('CCc1cnccc1C', 'T/C', '100 % of control'),
  ('O=C1C=CC(=O)c2c(O)c(CBr)c(CBr)c(O)c21', 'T/C', '100 % of control'),
  ('NC(=O)N1CCN(CCCN2c3ccccc3Sc3cc(Cl)ccc32)CC1', 'T/C', '106 % of control');

====

Test system: BDF1 mice, B16 melanoma ip, median survival T/C
Procedure details: NCI In Vivo Anticancer Drug Screen. Data for tumor model B16 Melanoma (intraperitoneal) in B6D2F1 (BDF1) mice
Assay setup: endpoint: median survival time; dose: 50.0 mg/kg/injection; schedule: Q01DX009 (ip); vehicle: water; higher = longer survival
Toxic doses and inconclusive results are not listed. Peptide text beside a SMILES is read from it.
Here, each record is paired with measured T/C data.
Assay readout: T/C

INSERT INTO measurements (compound, recorded_result) VALUES
  ('CCN(CC)CCCC(C)NS(=O)(=O)c1cccc2c(N(C)C)cccc12 (stereo unspecified)', '98 % of control'),
  ('COc1cc2ccc3c[n+](C)ccc3c2cc1OC', '95 % of control'),
  ('COc1cc2ccncc2cc1O', '98 % of control'),
  ('CC1OC(OCc2ccc3c(c2)C(=O)c2ccccc2C3=O)CC(N)C1O (stereo unspecified)', '94 % of control'),
  ('CC(C)C(NC(=O)C(NC(=O)C(CCCN=C(N)N)NC(=O)C(N)CCCCN)C(C)C)C(N)=O (stereo unspecified) (H-KRVV-NH2; configuration not given here)', '96 % of control'),
  ('CC1(O)C=CC(=O)C=C1', '114 % of control');

====

Test system: BDF1 mice, B16 melanoma ip, median survival T/C
Procedure details: NCI In Vivo Anticancer Drug Screen. Data for tumor model B16 Melanoma (intraperitoneal) in B6D2F1 (BDF1) mice
Assay setup: endpoint: median survival time; dose: 3.12 mg/kg/injection; schedule: Q01DX009 (ip); vehicle: saline; higher = longer survival
Description: The antitumor activity of compounds was measured in mice bearing transplantable tumors. Survival or tumor size were measured and the results are expressed as the measurement made in the treated group (T) divided by the measurement made in the vehicle treated control group (C). The tumor model used in this assay is B16 Melanoma (intraperitoneal) in B6D2F1 (BDF1) mice
Toxic doses and inconclusive results are not listed.
Assay readout: T/C

INSERT INTO measurements (compound, recorded_result) VALUES
  ('C1CCc2nnnn2CC1', '113 % of control'),
  ('CN1CCCCC1CCN1c2ccccc2Sc2ccc(Cl)cc21 (configuration not stated)', '102 % of control'),
  ('CCN1C(=O)CC2(CCN(C)CC2)C1=O', '103 % of control'),
  ('CC(CN1CCN(CCOCCO)CC1)CN1c2ccccc2Sc2ccccc21 (configuration not stated)', '97 % of control'),
  ('Nc1c2c(nc3ccccc13)CCCC2', '102 % of control'),
  ('O=CC(=O)c1ccc(O)cc1', '97 % of control'),
  ('CN(C)CC/C=C1/c2ccccc2COc2ccccc21', '112 % of control'),
  ('COC(=O)C1=CCCN(C)C1', '100 % of control'),
  ('CC(CN1c2ccccc2Sc2cccnc21)N(C)C (configuration not stated)', '97 % of control'),
  ('c1ccc(C2CN3CCSC3=N2)cc1 (configuration not stated)', '104 % of control'),
  ('CNCCOC(c1ccccc1)c1ccccc1C (configuration not stated)', '97 % of control'),
  ('CCCCCCCCCCCCCCCCP(=O)(OCCOCCCCCC)OCCOCCCCCC', '103 % of control');

====

Test system: BDF1 mice, B16 melanoma ip, median survival T/C
Procedure details: NCI In Vivo Anticancer Drug Screen. Data for tumor model B16 Melanoma (intraperitoneal) in B6D2F1 (BDF1) mice
Assay setup: endpoint: median survival time; dose: 12.5 mg/kg/injection; schedule: Q01DX009 (ip); vehicle: saline; higher = longer survival
Toxic doses and inconclusive results are not listed.
Assay readout: T/C

INSERT INTO measurements (compound, test_system, assay_readout, recorded_result) VALUES
  ('CN1C2CCC1CC(OC(c1ccccc1)c1ccccc1)C2 (centres undefined)', 'BDF1 mice, B16 melanoma ip, median survival T/C', 'T/C', '110 % of control'),
  ('c1ccc(C2CN3CCSC3=N2)cc1 (centres undefined)', 'BDF1 mice, B16 melanoma ip, median survival T/C', 'T/C', '94 % of control'),
  ('COC(=O)C1CCC[N+](C)(C)C1 (centres undefined)', 'BDF1 mice, B16 melanoma ip, median survival T/C', 'T/C', '100 % of control'),
  ('CN(C)CCCN1c2ccccc2S(=O)c2ccc(Cl)cc21 (centres undefined)', 'BDF1 mice, B16 melanoma ip, median survival T/C', 'T/C', '97 % of control'),
  ('ClC1CCC[N-]C1.ClC1CCC[N-]C1.[Cl][Pt+2][Cl] (centres undefined)', 'BDF1 mice, B16 melanoma ip, median survival T/C', 'T/C', '95 % of control'),
  ('Nc1c2c(nc3ccccc13)CCCC2', 'BDF1 mice, B16 melanoma ip, median survival T/C', 'T/C', '100 % of control'),
  ('N#CCCCN1CCCCC1', 'BDF1 mice, B16 melanoma ip, median survival T/C', 'T/C', '100 % of control'),
  ('O=C1OC2CC1(O)CC(O)C2O (centres undefined)', 'BDF1 mice, B16 melanoma ip, median survival T/C', 'T/C', '92 % of control'),
  ('CC(C)c1ccc(O)c(O)c1', 'BDF1 mice, B16 melanoma ip, median survival T/C', 'T/C', '95 % of control'),
  ('CCC(=O)OC1(c2ccccc2)CCN(C)C1C (centres undefined)', 'BDF1 mice, B16 melanoma ip, median survival T/C', 'T/C', '102 % of control'),
  ('CC(C)N(Cc1ccccc1)CC(O)c1ccc(Cl)cc1 (centres undefined)', 'BDF1 mice, B16 melanoma ip, median survival T/C', 'T/C', '94 % of control'),
  ('C#CCC1(OC(N)=O)CCCCC1', 'BDF1 mice, B16 melanoma ip, median survival T/C', 'T/C', '104 % of control'),
  ('CNC(=O)Oc1c(C)occc1=O', 'BDF1 mice, B16 melanoma ip, median survival T/C', 'T/C', '90 % of control'),
  ('COC(OC(CO)C(O)S(=O)(=O)O)C(O)S(=O)(=O)O (centres undefined)', 'BDF1 mice, B16 melanoma ip, median survival T/C', 'T/C', '104 % of control');

====

Test system: BDF1 mice, B16 melanoma ip, median survival T/C
Procedure details: NCI In Vivo Anticancer Drug Screen. Data for tumor model B16 Melanoma (intraperitoneal) in B6D2F1 (BDF1) mice
Assay setup: endpoint: median survival time; dose: 2.5 mg/kg/injection; schedule: Q01DX009 (ip); vehicle: saline with Tween-80; higher = longer survival
Toxic doses and inconclusive results are not listed.
Here, each record is paired with measured T/C data.
Assay readout: T/C

INSERT INTO measurements (compound, assay_readout, recorded_result) VALUES
  ('Nc1nc(=S)c2ncn(C3CC(O)C(CO)O3)c2[nH]1 (stereo not drawn)', 'T/C', '117 % of control'),
  ('O=Nc1c(N=O)c(N=O)c(N=O)c(N=O)c1N=O', 'T/C', '105 % of control'),
  ('CC(=O)C(O)N1C(=O)C=CC1=O (stereo not drawn)', 'T/C', '105 % of control'),
  ('[Cl][Pt+2][Cl].[NH-]c1ccccc1[NH-]', 'T/C', '122 % of control'),
  ('[Cl][Pt+2][Cl].[NH-]c1ccc(Cl)cc1[NH-]', 'T/C', '108 % of control'),
  ('O=C/C(Cl)=C(/Cl)C(=O)O', 'T/C', '99 % of control'),
  ('CC(O)C(=O)[O][Hg][c]1ccccc1 (stereo not drawn)', 'T/C', '102 % of control'),
  ('CCCCCCCCCCCCCCCCCC(=O)NCNC(=O)CCCCCCCCCCCCCCCCC', 'T/C', '102 % of control');
